Origin of measurements: patent US20230183352A1

Recorded EC50 for the following binders
target: T1, Claudin 18.2 (CLDN18.2), expressed on CHOS-CLDN 18.2 / HEK293-CLDN 18.2 / HCC827-CLDN 18.2 cells (human, UniProt P56856-2 1-261); test: FACS, CHOS-CLDN18.2 cells
T1 construct: whole, on cells; The species is not repeated for the CHOS-CLDN 18.2 cells; also called claudin-18A2
Please give a number only; it is taken to be in µg/mL.

In: Fill in EC50 for record QP14501446 (antibody, human IgG1, kappa, V domains shown, Humanized from QP199200) VH: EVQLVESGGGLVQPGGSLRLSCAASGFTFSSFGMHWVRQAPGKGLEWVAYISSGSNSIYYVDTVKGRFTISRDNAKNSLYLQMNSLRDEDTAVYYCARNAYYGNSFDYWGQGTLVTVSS VL: DIVMTQSPDSLAVSLGERATINCKSSQSLLNSGNQKNYLTWYQQKPGQPPKLLIYWASTRESGVPDRFSGSGSGTDFTLTISSLQAEDVAVYYCQNNYYYPLTFGGGTKVEIKR
Out: 0.962

In: Fill in EC50 for record QP199200 (antibody, human IgG1, V domains shown, Chimeric; also called 43C11; mouse-derived chimeric antibody QP199200) VH: DVQLVESGGGLVQPGGSRKLSCAASGFTFSSFGMHWVRQAPEKGLEWVAYISSGSNSIYYVDTVKGRFTISRDNPKNTLFLQMTSLKSEDTAMYYCARNAYYGNSFDYWGQGTTLTVSS VL: DIVMTQSPSSLTVTAGEKVTMSCKSSQSLLNSGNQKNYLTWYQQKPGQPPKLLIYWASTRESGVPDRFTGSGSGTVFTLTISSVQAEDLAVYFCQNNYYYPLTFGAGTKLELK
Out: 1.19

In: Fill in EC50 for record QP14491448 (antibody, human IgG1, kappa, V domains shown, Humanized from QP199200) VH: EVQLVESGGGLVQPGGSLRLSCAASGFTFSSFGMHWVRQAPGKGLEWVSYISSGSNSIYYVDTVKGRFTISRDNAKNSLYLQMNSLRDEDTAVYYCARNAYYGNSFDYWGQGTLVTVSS VL: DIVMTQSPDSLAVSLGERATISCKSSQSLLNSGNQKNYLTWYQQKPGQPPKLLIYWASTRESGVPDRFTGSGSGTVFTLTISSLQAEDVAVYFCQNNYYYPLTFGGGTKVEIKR
Out: 0.666

In: Fill in EC50 for record QP024025 (antibody, human IgG1, V domains shown, also called IMAB362; 175D10(IMAB362)) VH: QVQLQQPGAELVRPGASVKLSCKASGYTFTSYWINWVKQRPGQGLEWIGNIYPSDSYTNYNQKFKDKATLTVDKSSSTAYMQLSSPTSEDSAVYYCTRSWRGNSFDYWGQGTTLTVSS VL: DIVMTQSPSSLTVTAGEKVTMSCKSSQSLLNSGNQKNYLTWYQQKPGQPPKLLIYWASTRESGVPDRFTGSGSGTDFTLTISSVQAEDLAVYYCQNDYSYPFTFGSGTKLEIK
Out: 0.27
